biological target: HIV RT recovered from patient plasma (Human immunodeficiency virus type 1); assay: Susceptibility to NNRTIs using plasma derived RTs; assay type: biochemical, HIV-1; conditions: IC50, plasma RT of patient code 1177; 1.7 fg/well
quantity: IC50 (µM)
Give bare numbers, in µM.

Query block: Specify the recorded IC50 for CC(C)Nc1cccnc1N1CCN(C(=O)c2cc3cc(NS(C)(=O)=O)ccc3[nH]2)CC1 , system: HIV RT recovered from patient plasma (Human immunodeficiency virus type 1).
Result block: 4.54

---

Could you please report measured IC50 for the items listed next?
biological target: HIV RT recovered from patient plasma (UniProt P04585, K690N/V695H, species not given); assay: Susceptibility to AZT-TP and d4T-TP using plasma derived RTs (Chain-termination reaction mixture); settings: plasma RT of patient code 2098; 5 fg/well
Give bare numbers, in nM.

Need IC50 for each of these compounds.
1. Cc1cn([C@H]2C=C[C@@H](COP(=O)(O)OP(=O)(O)OP(=O)(O)O)O2)c(=O)[nH]c1=O [d4T-TP]
2. Cc1cn(C2CC(N=[N+]=[N-])C(COP(=O)(O)OP(=O)(O)OP(=O)(O)O)O2)c(=O)[nH]c1=O (centres unmarked) [AZT-TP]

Result block:
[48, 350]

---

target: HIV RT recovered from patient plasma (Human immunodeficiency virus type 1); test: Susceptibility to AZT-TP and d4T-TP using plasma derived RTs (Chain-termination reaction mixture); details: IC50, plasma RT of patient code 160; 5 fg/well
quantity: IC50 (µM)
One number for each entry, in µM.

In [3]: df
Out[3]:
                                   compound  measurement
0  Cc1cn([C@H]2C=C[C@@H](COP(=O)(O)OP(=O)(O)OP(=O)(O)O)O2)c(=O)[nH]c1=O        0.043

Now consider a different compound.
Query block: Provide IC50 value for the following compound: Cc1cn(C2CC(N=[N+]=[N-])C(COP(=O)(O)OP(=O)(O)OP(=O)(O)O)O2)c(=O)[nH]c1=O (centres unmarked)
Result block: 0.27

---

target: recombinant HIV 1 RT wild type (Human immunodeficiency virus type 1 group M subtype B, UniProt P04585); construct: This variation was maximal for wild type RT; made in house; experiment: Influence of the amount of RT used in the drug susceptibility tests (AZT-TP); format: biochemical; details: RT amount 162 fg/well
quantity: IC50 (nM)
Give bare numbers, in nM.

Query block: Return IC50 for the following molecule: Cc1cn(C2CC(N=[N+]=[N-])C(COP(=O)(O)OP(=O)(O)OP(=O)(O)O)O2)c(=O)[nH]c1=O (stereo not shown)
Result block: 220

---

target: recombinant HIV 1 RT wild type HxB2 (Human immunodeficiency virus type 1 group M subtype B); assay: RT inhibition assay for dT analogues (Chain-termination reaction mixture)
For each record, write down the corresponding pIC50.
Give bare numbers, as −log10 of the molar value.

>>> df
                                   compound  quantity  measurement
0  Cc1cn(C2CC(N=[N+]=[N-])C(COP(=O)(O)OP(=O)(O)OP(=O)(O)O)O2)c(=O)[nH]c1=O (centres unmarked) [AZT-TP]     pIC50         6.72

Switching to the query record.
Query block: Query pIC50 for Cc1cn([C@H]2C=C[C@@H](COP(=O)(O)OP(=O)(O)OP(=O)(O)O)O2)c(=O)[nH]c1=O [d4T-TP]
Result block: 7.30

---

biological target: HIV RT recovered from patient plasma (Human immunodeficiency virus type 1, UniProt P03366); assay: Susceptibility to NNRTIs using plasma derived RTs; format: biochemical, HIV-1; settings: IC50, plasma RT of patient code 1412; 1.7 fg/well
quantity: IC50 (µM)
One number for each entry, in µM.

Query block: Could you please provide reported IC50 for CC(C)Nc1cccnc1N1CCN(C(=O)c2cc3cc(NS(C)(=O)=O)ccc3[nH]2)CC1 [Delaviridine] ? Thanks!
Result block: 3.6

---

molecular target: recombinant HIV 1 RT wild type BH10 (Human immunodeficiency virus type 1 group M subtype B); experiment: RT inhibition assay for non-nucleoside inhibitors (modified HS Lenti RT assay, RT Reaction mixture); type: biochemical; details: 1.7 fg/well, 19 hours, read-out: IC50 of indicated inhibitor in RT assay
quantity: pIC50
Numbers only, as −log10 of the molar value.

Query block: Indicate the recorded pIC50 value for this molecule: CC(C)Nc1cccnc1N1CCN(C(=O)c2cc3cc(NS(C)(=O)=O)ccc3[nH]2)CC1
Result block: 6.30

---

molecular target: recombinant HIV 1 RT L100I/K103N (Human immunodeficiency virus type 1 group M subtype B, UniProt P03366, K702N/L699I); assay: RT inhibition assay for non-nucleoside inhibitors (modified HS Lenti RT assay, RT Reaction mixture); details: 1.7 fg/well, 19 hours, read-out: IC50 of indicated inhibitor in RT assay
pIC50: −log10 of the molar value.
quantity: pIC50

Query block: Read the entry CC(C)Nc1cccnc1N1CCN(C(=O)c2cc3cc(NS(C)(=O)=O)ccc3[nH]2)CC1 [Delaviridine] and write its reported pIC50.
Result block: < 4.00

---

target: recombinant HIV 1 RT wild type BH10 (Human immunodeficiency virus type 1 group M subtype B); assay: RT inhibition assay for dT analogues (Chain-termination reaction mixture)
quantity: pIC50
Answers are plain numbers, as −log10 of the molar value.

For every record below, what is its pIC50?
1. Cc1cn(C2CC(N=[N+]=[N-])C(COP(=O)(O)OP(=O)(O)OP(=O)(O)O)O2)c(=O)[nH]c1=O (centres unmarked) [AZT-TP]
2. Cc1cn([C@H]2C=C[C@@H](COP(=O)(O)OP(=O)(O)OP(=O)(O)O)O2)c(=O)[nH]c1=O [d4T-TP]

Result block:
1. 6.80
2. 7.48

---

target: recombinant HIV 1 RT M41L/T69S-SS/L210W/R211K/L214F/T215Y (Human immunodeficiency virus type 1 group M subtype B, UniProt P04585, INS655SS/L797W/L801F/M628L/R798K/T656S/T802Y); assay: biochemical
What pIC50 was measured for each of the following?
Numbers only, as −log10 of the molar value.

>>> df
                                   compound  measurement
0  Cc1cn(C2CC(N=[N+]=[N-])C(COP(=O)(O)OP(=O)(O)OP(=O)(O)O)O2)c(=O)[nH]c1=O (centres unmarked)         5.40

With those in mind, consider the next compound.
Query block: Write down pIC50 measured for item Cc1cn([C@H]2C=C[C@@H](COP(=O)(O)OP(=O)(O)OP(=O)(O)O)O2)c(=O)[nH]c1=O
Result block: 6.31

---

target: HIV RT recovered from patient plasma (UniProt P04585, M628L/E631D/D654N/A685G/V705I/Y768C/L797W/T802Y, species not given); test: Susceptibility to AZT-TP and d4T-TP using plasma derived RTs (Chain-termination reaction mixture); conditions: plasma RT of patient code 656 (resensitising 181C); 5 fg/well
quantity: pIC50
Answers are plain numbers, as −log10 of the molar value.

>>> print(df.to_string())
                                   compound  measurement
0  Cc1cn(C2CC(N=[N+]=[N-])C(COP(=O)(O)OP(=O)(O)OP(=O)(O)O)O2)c(=O)[nH]c1=O (centres unmarked) [AZT-TP]         5.90

Here is another compound to look at.
Query block: Indicate the recorded pIC50 value for this compound: Cc1cn([C@H]2C=C[C@@H](COP(=O)(O)OP(=O)(O)OP(=O)(O)O)O2)c(=O)[nH]c1=O [d4T-TP]
Result block: 6.77

---

Please provide measured pIC50 for the entries that follow.
target: HIV RT recovered from patient plasma (UniProt P04585, T656N/L687I/K690N, species not given); test: Susceptibility to AZT-TP and d4T-TP using plasma derived RTs (Chain-termination reaction mixture); conditions: plasma RT of patient code 622; 5 fg/well
Give bare numbers, as −log10 of the molar value.

In [3]: df
Out[3]:
                                   compound  measurement
0  Cc1cn(C2CC(N=[N+]=[N-])C(COP(=O)(O)OP(=O)(O)OP(=O)(O)O)O2)c(=O)[nH]c1=O (centres unmarked)         6.64

Next item in the queue.
Query block: Fill in pIC50 for record Cc1cn([C@H]2C=C[C@@H](COP(=O)(O)OP(=O)(O)OP(=O)(O)O)O2)c(=O)[nH]c1=O
Result block: 7.55
